# system_name: Human TRPA1 (Homo sapiens)
# Sequence (O75762 whole entry): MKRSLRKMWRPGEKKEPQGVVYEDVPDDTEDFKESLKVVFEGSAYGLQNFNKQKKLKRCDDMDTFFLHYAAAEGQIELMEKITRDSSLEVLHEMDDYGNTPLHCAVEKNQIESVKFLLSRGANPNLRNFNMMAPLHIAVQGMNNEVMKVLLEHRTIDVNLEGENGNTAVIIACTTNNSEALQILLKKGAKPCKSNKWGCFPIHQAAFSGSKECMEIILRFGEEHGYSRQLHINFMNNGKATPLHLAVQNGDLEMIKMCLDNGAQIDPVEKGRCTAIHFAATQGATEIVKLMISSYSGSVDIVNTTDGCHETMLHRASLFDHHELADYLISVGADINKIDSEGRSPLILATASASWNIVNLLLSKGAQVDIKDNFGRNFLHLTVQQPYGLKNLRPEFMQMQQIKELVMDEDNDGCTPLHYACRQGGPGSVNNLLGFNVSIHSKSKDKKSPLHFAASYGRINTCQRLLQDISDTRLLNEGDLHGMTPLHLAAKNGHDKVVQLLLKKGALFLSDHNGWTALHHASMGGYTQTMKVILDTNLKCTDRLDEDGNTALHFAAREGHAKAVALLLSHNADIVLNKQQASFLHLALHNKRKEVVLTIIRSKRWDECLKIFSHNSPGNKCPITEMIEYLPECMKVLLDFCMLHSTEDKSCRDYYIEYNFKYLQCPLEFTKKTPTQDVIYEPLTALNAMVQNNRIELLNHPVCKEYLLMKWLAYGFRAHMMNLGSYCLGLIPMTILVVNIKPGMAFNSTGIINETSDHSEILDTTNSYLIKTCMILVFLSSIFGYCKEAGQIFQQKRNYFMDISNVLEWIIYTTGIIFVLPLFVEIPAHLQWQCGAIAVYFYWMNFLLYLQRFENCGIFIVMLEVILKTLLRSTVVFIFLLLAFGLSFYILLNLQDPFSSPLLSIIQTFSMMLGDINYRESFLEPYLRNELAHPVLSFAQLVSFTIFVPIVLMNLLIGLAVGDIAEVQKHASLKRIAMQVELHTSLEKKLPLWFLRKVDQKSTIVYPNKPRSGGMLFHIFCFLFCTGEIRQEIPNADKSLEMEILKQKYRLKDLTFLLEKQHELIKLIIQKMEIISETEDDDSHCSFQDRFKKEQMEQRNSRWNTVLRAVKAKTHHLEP
# assay_text: Assay 1: In vitro cellular testing of TRPA1 modulation (CHO-TREx, Fluo-3 calcium fluorescence, AITC agonist)
# Type: cell-based
# Parameters: expressed in transfected cells; host or cells: CHO-TREx cells (Invitrogen), vector pcDNA4/TO
# test_conditions: CHO-TREx cells expressing human TRPA1; Fluo-3 fluorescence (FLIPR/Tetra); agonist 15 μM allyl isothiocyanate (AITC); 30 minute antagonist incubation
endpoint_label: IC50 (nM)

Consider the reported IC50 for these compounds:
# compound, endpoint_label, unit_label, test_result
measured = [
    ("CNc1cc(CNC(=O)[C@@H]2C=CCN2S(=O)(=O)c2ccc(F)cc2)cc(-c2ccc(C(F)(F)F)cc2)n1", "IC50", "nM", 1610),
    ("CSc1ccc(-c2cccc(CNC(=O)[C@@H]3CCCN3S(=O)(=O)c3ccc(F)cc3)c2)cc1", "IC50", "nM", 50),
    ("O=C(NCc1cc(-c2ccc(C(F)(F)F)cc2)ccn1)[C@@H]1C=CCN1S(=O)(=O)c1ccc(F)cc1", "IC50", "nM", 10),
]

A = CN(C)[C@H]1CCN(c2nc(CNC(=O)[C@@H]3CCCN3S(=O)(=O)c3ccc(Cl)s3)cc(-c3ccc(C(F)(F)F)cc3)n2)C1
B = O=C(NCc1cc(-c2ccc(C(F)(F)F)cc2)nc(OCCN2CCOCC2)n1)[C@@H]1CCCN1S(=O)(=O)c1ccc(Cl)s1
Between the entries labelled A and B , which has a larger IC50 value on record? Response format: the label of the selected entry.
A
(A: 469 nM, B: 234 nM)

P = O=C(NCc1cc(-c2ccc(C(F)(F)F)cc2)nc(N2CCN(Cc3cccnc3)CC2)c1)[C@@H]1CC(F)(F)CN1S(=O)(=O)c1ccc(Cl)s1
Q = O=C(NCc1cc(-c2ccc(C(F)(F)F)cc2)ccn1)[C@@H]1CCCN1S(=O)(=O)c1ccc(Cl)s1
Between the entries labelled P and Q , which has a larger IC50 value on record? Response format: the label of the selected entry.
P
(P: 1650 nM, Q: 35 nM)

1 = CC(Nc1cc(CNC(=O)[C@@H]2C=CCN2S(=O)(=O)c2ccc(F)cc2)cc(-c2ccc(C(F)(F)F)cc2)n1)c1ccncc1 (stereo partly shown)
2 = CC(Nc1cc(CNC(=O)[C@@H]2CCCN2S(=O)(=O)c2ccc(F)cc2)cc(-c2ccc(C(F)(F)F)cc2)n1)c1ccccn1 (stereo partly shown)
Lowest IC50? choose 1 or 2 Response format: the label of the selected entry.
2
(2: 54 nM, 1: 1270 nM)
